assay: Inhibitory constant towards dopamine D2 receptor was determined
measurement-name: Log Ki

compound: COc1ccc2c(c1)C(=O)CC(CCN1CCN(c3ccccn3)CC1)C2 (configuration not stated)
Log Ki: < -5
--
compound: COc1ccc2c(c1)C(=O)CC(CCN1CCC(c3noc4cc(F)ccc34)CC1)C2 (configuration not stated)
Log Ki: -7.04
--
compound: COc1ccccc1N1CCN(CCC2CC(=O)c3ccccc3C2)CC1 (configuration not stated)
Log Ki: -6.97
--
compound: COc1ccc2c(c1)C(=O)CC(CCN1CCC3(CC1)NC(=O)NC3=O)C2 (configuration not stated)
Log Ki: < -5
--
compound: CN1CCN(C2=Nc3cc(Cl)ccc3Nc3ccccc32)CC1
Log Ki: -6.65
--
compound: O=C1CC(CCN2CCC(c3noc4cc(F)ccc34)CC2)Cc2ccccc21 (configuration not stated)
Log Ki: -5.98

Request: Query (compound): O=C1CC(CCN2CCN(c3ccccn3)CC2)Cc2ccccc21 (configuration not stated) ; field requested: Log Ki
Response: < -5

Request: Query (compound): COc1ccc2c(c1)C(=O)CC(CCN1CCC3(CC1)NCNC3=O)C2 (configuration not stated) ; field requested: Log Ki
Response: < -5

Request: Query (compound): O=C1NC(=O)C2(CCN(CCC3CC(=O)c4ccccc4C3)CC2)N1 (configuration not stated) ; field requested: Log Ki
Response: < -5

Request: Query (compound): O=C(CCCN1CCC(O)(c2ccc(Cl)cc2)CC1)c1ccc(F)cc1 ; field requested: Log Ki
Response: -9.22

Request: Query (compound): O=C1CC(CCN2CCC3(CC2)NCNC3=O)Cc2ccccc21 (configuration not stated) ; field requested: Log Ki
Response: < -5

Request: Query (compound): COc1ccc2c(c1)C(=O)CC(CCN1CCN(c3ccccc3OC)CC1)C2 (configuration not stated) ; field requested: Log Ki
Response: -6.55
